experiment: self-splicing fitness, log relative to wild type (ln ratio); higher = more splicing; Tetrahymena group I intron in knt gene, E. coli kanamycin selection, DiMSum; sequences stand for … in CUCUCU…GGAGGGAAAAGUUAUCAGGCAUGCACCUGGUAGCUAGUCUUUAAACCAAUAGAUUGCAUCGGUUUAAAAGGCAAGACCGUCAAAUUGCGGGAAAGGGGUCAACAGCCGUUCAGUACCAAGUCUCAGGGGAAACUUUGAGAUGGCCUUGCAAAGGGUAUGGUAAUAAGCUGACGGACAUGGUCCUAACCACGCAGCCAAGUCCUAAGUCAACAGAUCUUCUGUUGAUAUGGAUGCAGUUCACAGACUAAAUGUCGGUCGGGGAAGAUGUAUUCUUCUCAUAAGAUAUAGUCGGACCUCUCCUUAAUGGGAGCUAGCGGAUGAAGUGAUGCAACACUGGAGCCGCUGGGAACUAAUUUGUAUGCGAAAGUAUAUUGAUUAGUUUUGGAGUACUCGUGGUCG; details: 30 °C;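 also: selection with 25 µg/mL kanamycin versus none on LB agar overnight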
Would you mind classing the entries by self-splicing fitness (ln)? Ranges: bucket 1 = under -3, bucket 2 = from -3 up to -1, bucket 3 = -1 and over

Recorded results for 6 sequences are shown here.
INSERT INTO results (residue_codes, label) VALUES
  ('GUGGAGCAAUAUUACGAAGU', 'bucket 2'),
  ('AGCAAGCAAUAUUACGCACG', 'bucket 2'),
  ('GCCAAGCAAUAUUACGAUUG', 'bucket 1'),
  ('CGGCAGCAAUAUUACGAAAC', 'bucket 1'),
  ('CAGAAGCAAUAUUACGAUAA', 'bucket 2'),
  ('CUAUAGCAAUAUUACGCAUA', 'bucket 1');

Exercise: For the record `ACAGAGCAAUAUUACGUGGA` , report the class its self-splicing fitness (ln) corresponds to.
Key: bucket 1

Exercise: Queued: `CGACAGCAAUAUUACGGGGC`
Key: bucket 1

Exercise: And the next one, `CAGCAGCAAUAUUACGACUG` ?
Key: bucket 1

Exercise: Request: `AAGCAGCAAUAUUACGUCCU`
Key: bucket 3

Exercise: Same question, `GGUAAGCAAUAUUACGGGAA` this time
Key: bucket 2

Exercise: Moving on to `CUUAAGCAAUAUUACGUCUC`
Key: bucket 1

Exercise: Continue with `ACAAAGCAAUAUUACGCCUG`
Key: bucket 3

Exercise: And then `UUAUAGCAAUAUUACGAUCA` , what is it?
Key: bucket 3

Exercise: Let us now turn to `UUGAAGCAAUAUUACGACGG`
Key: bucket 3

Exercise: What about `CACGAGCAAUAUUACGAUCG` ?
Key: bucket 2

Exercise: What about `UCCGAGCAAUAUUACGUUAU` ?
Key: bucket 1

###

assay: self-splicing fitness, log relative to wild type (ln ratio); higher = more splicing; Tetrahymena group I intron in knt gene, E. coli kanamycin selection, DiMSum; sequences stand for … in CUCUCU…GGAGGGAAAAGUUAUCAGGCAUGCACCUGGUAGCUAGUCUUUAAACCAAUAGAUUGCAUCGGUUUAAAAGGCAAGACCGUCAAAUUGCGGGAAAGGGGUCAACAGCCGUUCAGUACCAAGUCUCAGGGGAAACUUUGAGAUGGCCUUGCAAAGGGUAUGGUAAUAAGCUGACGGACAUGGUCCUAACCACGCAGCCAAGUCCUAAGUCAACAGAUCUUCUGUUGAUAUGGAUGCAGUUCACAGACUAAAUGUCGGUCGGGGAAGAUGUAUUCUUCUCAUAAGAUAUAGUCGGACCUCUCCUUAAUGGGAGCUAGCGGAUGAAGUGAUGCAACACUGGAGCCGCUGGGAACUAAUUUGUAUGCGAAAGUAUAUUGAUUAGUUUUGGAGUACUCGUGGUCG; details: 30 °C
readout: self-splicing fitness (ln)
Just the number, please, no unit after it.

INSERT INTO results (residue_codes, assay_value) VALUES
  ('CCCUAGCAAUAUUACGGAGG', -2.87),
  ('UCAAAGCAAUAUUACGUCCU', -3.34),
  ('UAUGAGCAAUAUUACGCGAG', -2.87),
  ('UUUAAGCAAUAUUACGCUAC', -3.5),
  ('AAUGAGCAAUAUUACGCCCG', -2.18);

Exercise: Param item = `ACACAGCAAUAUUACGUUAU` ; retrieve measured self-splicing fitness (ln).
Key: -3.35

Exercise: Another: `ACCUAGCAAUAUUACGAUAC`
Key: -3.47

Exercise: Another sequence to check: `GAAUAGCAAUAUUACGGCUU`
Key: 0.268

Exercise: Queued: `UGUGAGCAAUAUUACGUGGA`
Key: -2.53

Exercise: Please give the result for `GCCCAGCAAUAUUACGCCAC` too.
Key: -4.89

Exercise: Next record, please: `CCGAAGCAAUAUUACGCACA`
Key: -3.87

Exercise: Same thing, different sequence: `CAGGAGCAAUAUUACGGUGG`
Key: -1.91

Exercise: Can you handle `GGACAGCAAUAUUACGCUAC` next?
Key: -4.74

Exercise: Further, for `AGGCAGCAAUAUUACGAGCG` ?
Key: -1.13

Exercise: Cool, now `CCACAGCAAUAUUACGCCGG`
Key: -3.23

Exercise: Repeat with `AAGUAGCAAUAUUACGGUAC`
Key: -2.65

Exercise: `CCGAAGCAAUAUUACGGUAU` ?
Key: -3.13

Exercise: How about `UAGCAGCAAUAUUACGGAAA` ?
Key: -1.82

Exercise: Queued: `CACAAGCAAUAUUACGAAGA`
Key: -2.71

Exercise: Can you check `AUGGAGCAAUAUUACGCGAG` next?
Key: -2.22

Exercise: Further, for `CAAGAGCAAUAUUACGGUAC` ?
Key: -3.2

Exercise: What would you report for `UCUGAGCAAUAUUACGUUUU` ?
Key: -4.31

###

test: self-splicing fitness, log relative to wild type (ln ratio); higher = more splicing; Tetrahymena group I intron in knt gene, E. coli kanamycin selection, DiMSum; sequences stand for … in CUCUCU…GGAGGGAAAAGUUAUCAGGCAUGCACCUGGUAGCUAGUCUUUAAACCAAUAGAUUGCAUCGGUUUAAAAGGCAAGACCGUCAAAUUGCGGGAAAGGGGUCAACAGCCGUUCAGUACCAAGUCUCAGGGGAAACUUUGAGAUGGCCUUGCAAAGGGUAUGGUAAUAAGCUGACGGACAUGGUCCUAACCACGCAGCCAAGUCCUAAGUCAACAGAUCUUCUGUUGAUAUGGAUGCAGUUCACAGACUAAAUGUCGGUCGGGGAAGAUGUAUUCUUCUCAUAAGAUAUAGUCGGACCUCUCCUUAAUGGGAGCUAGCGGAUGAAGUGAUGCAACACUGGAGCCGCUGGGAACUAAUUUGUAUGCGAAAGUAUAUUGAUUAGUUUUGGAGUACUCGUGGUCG; conditions: 37 °C
# label = yes if self-splicing fitness (ln) >= -2 else no

# count of solved cases: 2
INSERT INTO measurements (residue_codes, label) VALUES
  ('GUGAAGCAAUAUUACGUGCC', 'yes'),
  ('AAGUAGCAAUAUUACGGUAC', 'yes');

Then this sequence:
Exercise: Please check the record `UGACAGCAAUAUUACGUAAA` and state if its self-splicing fitness (ln) is at or above -2.
Key: yes

###

A collection of sequences and their measured self-splicing fitness (ln)
assay: self-splicing fitness, log relative to wild type (ln ratio); higher = more splicing; Tetrahymena group I intron in knt gene, E. coli kanamycin selection, DiMSum; sequences stand for … in CUCUCU…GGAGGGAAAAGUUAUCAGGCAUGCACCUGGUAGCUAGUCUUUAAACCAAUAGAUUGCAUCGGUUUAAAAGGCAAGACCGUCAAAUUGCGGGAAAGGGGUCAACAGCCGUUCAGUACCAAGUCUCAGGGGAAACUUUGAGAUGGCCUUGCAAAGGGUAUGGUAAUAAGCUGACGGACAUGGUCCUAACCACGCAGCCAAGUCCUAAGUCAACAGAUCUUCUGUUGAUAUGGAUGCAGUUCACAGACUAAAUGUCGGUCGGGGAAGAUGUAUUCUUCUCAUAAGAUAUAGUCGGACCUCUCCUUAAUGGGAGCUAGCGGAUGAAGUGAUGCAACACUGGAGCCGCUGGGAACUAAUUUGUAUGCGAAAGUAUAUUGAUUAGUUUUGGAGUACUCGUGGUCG; conditions: 30 °C
Kindly provide the number alone.

INSERT INTO measurements (residue_codes, assay_value) VALUES
  ('CACUAGCAAUAUUACGUUCA', -2.34);

Exercise: Reported self-splicing fitness (ln) for `UUUAAGCAAUAUUACGUCAU` : what is it?
Key: -3.03

Exercise: Field entry: `UUAGAGCAAUAUUACGGUGC`
Key: -3.76

Exercise: Also, `ACAUAGCAAUAUUACGAUUG` please.
Key: -2.62

Exercise: Also need `GUUUAGCAAUAUUACGGCCG` , thanks.
Key: -2.4

Exercise: Try this sequence too: `UAUCAGCAAUAUUACGCUGC`
Key: -2.59

Exercise: Thanks! And `CUUAAGCAAUAUUACGUUGU` ?
Key: -3.89

Exercise: And then `UCUGAGCAAUAUUACGACGA` , what is it?
Key: -0.584

Origin of measurements: the supplement of paper PMC7877785
